Property: GI50; scope: individual compounds
- System: A549
- TEST_DETAILS: NCI tumour cell line growth inhibition, 48 h
Calls of active or inactive are those of the source. Rule as the data show it: active = GI50 up to about 1.1 µM and inactive = higher.
ENDPOINT: GI50

COMPOUND | MEASURED_VALUE
NCCSC1(O)C(=O)c2ccccc2-c2ccccc21 (stereo not drawn) | 0.719 µM (active)
c1cc(-c2cnc(-c3ccc4c(c3)CCCO4)o2)ccn1 | 16.2 µM (inactive)
CC1=C(C(=O)Nc2ccccc2)C(c2ccc(N(C)C)cc2)C(C(=O)Nc2ccccc2)=C(C)N1 | 3.31 µM (inactive)
COc1cc(-c2nn3c(=O)n(-c4ccc(Cl)cc4)c(=O)nc3s2)cc(OC)c1OC | 41 µM (inactive)
CC1=C(C2=C(C)C(=O)C(=O)c3cc(C)ccc32)c2ccc(C)cc2C(=O)C1=O | 1.7 µM (inactive)
COC(=O)[C@H]1ON2O[C@@H](O[C@H]3CCCC[C@@H]3C(C)(C)c3ccccc3)C[C@@H]3CC[C@H]1[C@@]32C | > 100 µM (inactive)
C=C1C(=O)OC2CC(C)C(/C=C/C(C)=O)=CCC12 (stereo not drawn) | > 100 µM (inactive)
CCCc1cn2c(/C=N/NC(=N)N)c(-c3ccc(Cl)c([N+](=O)[O-])c3)nc2s1 | 1.73 µM (inactive)
Cc1ccc(NC(=O)c2cccc([N+](=O)[O-])c2O)c(C)c1 | 15.9 µM (inactive)
COC(=O)c1ccc(/C=C2\Oc3ccccc3C2=O)cc1 | > 100 µM (inactive)
CCC1C(c2cc(OC)c(OC)c(OC)c2)c2cc3c(cc2OC1N1CCOCC1)OCO3 (stereo not drawn) | 4.36 µM (inactive)
O=C(NO)NCCCl | > 100 µM (inactive)
C1=CC(=P(c2ccccc2)(c2ccccc2)c2ccccc2)C=C1 | 14.1 µM (inactive)
